- TEST_METHOD_NOTES: Assay 16 Determination of mouse plasma levels of test compounds
- Type: in vivo
- CONDITION: mouse, plasma, po, 30 mg/kg, 30 min, individual mouse (Table 2), read-out: Conc. in mouse plasma
MEASURED_ATTRIBUTE: concentration at 30 min (ng/mL)
Answer format: numeric, ng/mL implied, no suffix.

What the record says about O=c1c(-c2ccc(Cl)cc2)cnc2c(O)c(I)ccn12 : concentration at 30 min is 413

---

- TEST_METHOD_NOTES: Phase II clinical trial: therapeutic drug monitoring, blood levels by HPLC
- Type: in vivo
- CONDITION: human, oral, 500 mg/day, total daily dosage 500 mg, read-out: Steady state pre-dose blood level
MEASURED_ATTRIBUTE: concentration at 24 weeks (ng/mL)
Answer format: numeric, ng/mL implied, no suffix.

What the record says about Oc1c(I)cc(Cl)c2cccnc12 [PBT-1, iodochlorohydroxyquinoline] : concentration at 24 weeks is 6740

---

- SYSTEM: Aβ 1-42 (Homo sapiens, UniProt P05067)
- Construct: The reaction solutions contained Aβ 1-42
- Sequence (P05067 672-713 limits assumed): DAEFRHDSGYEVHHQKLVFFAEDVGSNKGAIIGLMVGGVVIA
- TEST_METHOD_NOTES: Assay 1 Fluorometric H2O2 assay: inhibition of hydrogen peroxide generation by Aβ in the presence of copper
- CONDITION: Aβ 1-42 with Cu-Gly, DCF fluorescence
MEASURED_ATTRIBUTE: IC50 (nM)
Answer format: numeric, nM implied, no suffix.

Answered examples (5):
What the record says about CNCc1ccc2cnc(C(=O)NCc3ccc(F)cc3)c(O)c2n1 : IC50 is 1140

What the record says about O=c1c2c(Cl)cc(Cl)c(O)c2ncn1C1CC1 : IC50 is 450

What the record says about O=c1c(-c2ccc(Cl)cc2)cnc2c(O)c(I)ccn12 : IC50 is 620

What the record says about O=c1c2c(Cl)cc(Cl)c(O)c2ncn1-c1ccc(F)cc1 : IC50 is 750

What the record says about COC(=O)c1nc(Cl)c2cccnc2c1O : IC50 is 900

Others:
What the record says about O=c1[nH]cnc2c(O)c(Cl)cc(Cl)c12 : IC50 is 950

What the record says about O=c1ccnc2c(O)cccn12 [PBT-1048, 9-hydroxypyrido[1,2-a]pyrimidin-4-one] : IC50 is 350

What the record says about O=c1[nH]cnc2c(O)cccc12 [PBT-1049, 8-hydroxy-3H-quinazolin-4-one] : IC50 is 1600

What the record says about Oc1c(N2CCOCC2)ncc2cccnc12 [PBT-1053, 7-Morpholin-4-yl-[1,6]naphthyridin-8-ol] : IC50 is 630

What the record says about O=c1c(-c2ccc(Cl)cc2)cnc2c(O)cccn12 : IC50 is 600

---

- TEST_METHOD_NOTES: Assay 12 Turbidimetric solubility measurements
- Type: physicochemical
- CONDITION: simulated gastric fluid, kinetic from dmso stock; 0.01 M HCl, pH 2.0, 1% DMSO, nephelometry; read-out: Assay 12 Solubility in 0.01 M HCl, pH 2.0
Counter-ions that a name gives are not always drawn.
MEASURED_ATTRIBUTE: solubility

Answered examples (4):
What the record says about O=c1c2c(Cl)cc(Cl)c(O)c2ncn1C1CC1 [PBT-1061] : solubility is 3.1 to 6.2 µg/mL

What the record says about CN(C)Cc1cnc2c(Cl)cc(Cl)c(O)c2n1 [PBT-1066, hydrochloride] : solubility is > 100 µg/mL

What the record says about O=c1[nH]cnc2c(O)c(Cl)cc(Cl)c12 [PBT-1067] : solubility is 12.5 to 25 µg/mL

What the record says about O=c1c2c(Cl)cc(Cl)c(O)c2ncn1-c1ccc(F)cc1 [PBT-1055] : solubility is 3 to 6.3 µg/mL

Others:
What the record says about Oc1c(N2CCOCC2)ncc2cccnc12 [PBT-1053, 7-Morpholin-4-yl-[1,6]naphthyridin-8-ol] : solubility is 50 to 100 µg/mL

What the record says about O=c1c(-c2ccc(Cl)cc2)cnc2c(O)c(I)ccn12 [PBT-1063] : solubility is < 10 µg/mL

---

- TEST_METHOD_NOTES: Assay 16 Determination of mouse plasma levels of test compounds
- Type: in vivo
- CONDITION: mouse, plasma, po, 30 mg/kg, 60 min, individual mouse (Table 2), read-out: Conc. in mouse plasma
MEASURED_ATTRIBUTE: concentration at 60 min

What the record says about O=c1c(-c2ccc(Cl)cc2)cnc2c(O)c(I)ccn12 : concentration at 60 min is 331 ng/mL

---

- TEST_METHOD_NOTES: Assay 12 Turbidimetric solubility measurements
- Assay type: physicochemical
- CONDITION: aqueous buffer, kinetic from dmso stock; pH 6.5 isotonic phosphate buffer, 1% DMSO, nephelometry; read-out: Assay 12 Solubility at pH 6.5
Structures can show the parent of a compound that is named as a salt.
MEASURED_ATTRIBUTE: solubility

Answered examples (5):
What the record says about O=c1[nH]cnc2c(O)c(Cl)cc(Cl)c12 : solubility is 25 to 50 µg/mL

What the record says about Oc1c(N2CCOCC2)ncc2cccnc12 [PBT-1053, 7-Morpholin-4-yl-[1,6]naphthyridin-8-ol] : solubility is > 200 µg/mL

What the record says about O=c1c2c(Cl)cc(Cl)c(O)c2ncn1-c1ccc(F)cc1 : solubility is 3 to 6.3 µg/mL

What the record says about O=c1c2c(Cl)cc(Cl)c(O)c2ncn1C1CC1 : solubility is 12.5 to 25 µg/mL

What the record says about O=c1c(-c2ccc(Cl)cc2)cnc2c(O)c(I)ccn12 : solubility is < 5 µg/mL

# ---- query compound ----
What the record says about CN(C)Cc1cnc2c(Cl)cc(Cl)c(O)c2n1 [PBT-1066, hydrochloride] : solubility is > 100 µg/mL

---

- Test system: Neuronal cortical cells treated with Aβ1-42
- TEST_METHOD_NOTES: Assay 3(c) Aβ neurotoxicity and Aβ neuroprotection (MTS)
- Assay type: cell-based, mouse
- CONDITION: 20 uM Aβ1-42, 4 days
Please enter fulfilled where Assay 3(c) Neuroprotection (% inhibition of Abeta toxicity) is greater than or equal to 10%, and not fulfilled where it is lower.

## Task # bool: Assay 3(c) Neuroprotection (% inhibition of Abeta toxicity) of O=c1c(-c2ccc(Cl)cc2)cnc2c(O)c(I)ccn12 [PBT-1063] >= 10%
## Result not fulfilled

Others:
## Task # bool: Assay 3(c) Neuroprotection (% inhibition of Abeta toxicity) of O=c1ccnc2c(O)cccn12 [PBT-1048, 9-hydroxypyrido[1,2-a]pyrimidin-4-one] >= 10%
## Result fulfilled

## Task # bool: Assay 3(c) Neuroprotection (% inhibition of Abeta toxicity) of O=c1c2c(Cl)cc(Cl)c(O)c2ncn1-c1ccc(F)cc1 [PBT-1055] >= 10%
## Result fulfilled

## Task # bool: Assay 3(c) Neuroprotection (% inhibition of Abeta toxicity) of Cc1cnc2c(Cl)cc(Cl)c(O)c2n1 [PBT 1064, 6,8-Dichloro-3-methylquinoxalin-5-ol] >= 10%
## Result fulfilled

## Task # bool: Assay 3(c) Neuroprotection (% inhibition of Abeta toxicity) of Oc1c(N2CCOCC2)ncc2cccnc12 [PBT-1053, 7-Morpholin-4-yl-[1,6]naphthyridin-8-ol] >= 10%
## Result fulfilled

## Task # bool: Assay 3(c) Neuroprotection (% inhibition of Abeta toxicity) of COC(=O)c1nc(Cl)c2cccnc2c1O [PBT-1045] >= 10%
## Result fulfilled

## Task # bool: Assay 3(c) Neuroprotection (% inhibition of Abeta toxicity) of O=c1c2c(Cl)cc(Cl)c(O)c2ncn1C1CC1 [PBT-1061] >= 10%
## Result fulfilled

## Task # bool: Assay 3(c) Neuroprotection (% inhibition of Abeta toxicity) of O=c1[nH]cnc2c(O)cccc12 [PBT-1049, 8-hydroxy-3H-quinazolin-4-one] >= 10%
## Result fulfilled

## Task # bool: Assay 3(c) Neuroprotection (% inhibition of Abeta toxicity) of Cc1cnc2c(O)c(Cl)cc(Cl)c2n1 [PBT-1065, 6,8-Dichloro-2-methylquinoxalin-5-ol] >= 10%
## Result not fulfilled

---

- TEST_METHOD_NOTES: Phase II clinical trial: therapeutic drug monitoring, blood levels by HPLC
- Assay type: in vivo
- CONDITION: human, oral, 750 mg/day, total daily dosage 750 mg, read-out: Steady state pre-dose blood level
MEASURED_ATTRIBUTE: concentration at 36 weeks (ng/mL)
Answer format: numeric, ng/mL implied, no suffix.

What the record says about Oc1c(I)cc(Cl)c2cccnc12 [PBT-1, iodochlorohydroxyquinoline] : concentration at 36 weeks is 7600

---

- TEST_METHOD_NOTES: Phase II clinical trial: therapeutic drug monitoring, blood levels by HPLC
- Assay type: in vivo
- CONDITION: human, oral, 250 mg/day, total daily dosage 250 mg, read-out: Steady state pre-dose blood level
MEASURED_ATTRIBUTE: concentration at 12 weeks (ng/mL)
Answer format: numeric, ng/mL implied, no suffix.

What the record says about Oc1c(I)cc(Cl)c2cccnc12 [PBT-1, iodochlorohydroxyquinoline] : concentration at 12 weeks is 4030
